// reported calcium oscillation score per item
target: Tau; test: rat primary cortical neurons, FLIPR, 25 uM ASO
Bases are written 5' to 3'; sugars and linkages follow in the same order, as letters with counts (s phosphorothioate, o phosphodiester; PS: all linkages phosphorothioate). The collection does not say whether C is 5-methylated. l = locked nucleic acid (LNA); d = 2'-deoxy (DNA)

Here is how some sequences turned out for calcium oscillation score.
[
  {
    "Residue Sequence": "CCTCGTCAGCTAGCGT (sugars l3 d10 l3, PS)",
    "calcium oscillation score": "76 % of control"
  },
  {
    "Residue Sequence": "CCAAATTCCTCATAATCCAA (sugars l2 d15 l3, PS)",
    "calcium oscillation score": "73.4 % of control"
  },
  {
    "Residue Sequence": "GCACCCTCCAAATCACCA (sugars l1 d15 l2, PS)",
    "calcium oscillation score": "50.6 % of control"
  }
]

Turning to the following sequence.
Q. Give recorded calcium oscillation score. GCTCCAACCACACCTTT (sugars l2 d11 l4, PS)
A. 87.2 % of control
